Where do the numbers come from? From patent US9890185B2.

Tested on: PBMCs
Experiment: LPS-induced IL-8 release in PBMC cells (assay b)
Format: cell-based, human
Conditions: Homo sapiens, PBMC; LPS-stimulated PBMCs; read-out: IC50 Values for Inhibition of Cytokine Release, PBMCs IL-8
observation_type: IC50 (nM)

1. COc1cc(Nc2nccc(Oc3ccc(NC(=O)Nc4cc(C(C)(C)C)cc(P(C)(C)=O)c4OC)c4ccccc34)n2)cc(OC)c1 [Example 18] ... 2.1
2. COc1c(NC(=O)Nc2ccc(Oc3ccnc(Nc4ccccc4)n3)c3ccccc23)cc(C(C)(C)C)cc1OCP(C)(C)=O [15(d)] ... 6.2
3. COc1c(NC(=O)Nc2ccc(Oc3ccnc(NCc4ccccc4)n3)c3ccccc23)cc(C(C)(C)C)cc1P(C)(C)=O [38(g)] ... 3.3
4. COc1ccc(Nc2nccc(Oc3ccc(NC(=O)Nc4cc(C(C)(C)C)cc(P(C)(C)=O)c4OC)c4ccccc34)n2)cc1OC [15(i)] ... 1.5
5. COc1cc(Nc2cc(Oc3ccc(NC(=O)Nc4cc(C(C)(C)C)cc(P(C)(C)=O)c4OC)c4ccccc34)ccn2)cc(S(=O)(=O)N(C)C)c1 [Example 58] ... 1.4
6. COc1cc(Nc2cc(Oc3ccc(NC(=O)Nc4cc(C(C)(C)C)cc(C(=O)NCCN5CCOCC5)c4OC)c4ccccc34)ccn2)cc(C(=O)NCCN2CCOCC2)c1 [Example 60] ... 2.4
7. COc1c(NC(=O)Nc2ccc(Oc3ccnc(NC4CCOCC4)n3)c3ccccc23)cc(C(C)(C)C)cc1P(C)(C)=O [Example 31] ... 2.6
8. COc1cncc(Nc2cc(Oc3ccc(NC(=O)Nc4cc(C(C)(C)C)cc(P(C)(C)=O)c4OC)c4ccccc34)ccn2)c1 [Example 34] ... 1.2
9. COc1cccc(Nc2cc(Oc3ccc(NC(=O)Nc4cc(C(C)(C)C)cc(CC(N)=O)c4OC)c4ccccc34)ccn2)c1 [Example 33] ... 1.7
10. COc1cc(Nc2cc(Oc3ccc(NC(=O)Nc4cc(C(C)(C)C)cc(S(C)(=O)=O)c4OC)c4ccccc34)ccn2)cc(C(=O)NCCN2CC[S+]([O-])CC2)c1 [38(an)] ... 3.8
11. COCCOCCOCCNC(=O)c1cc(Nc2cc(Oc3ccc(NC(=O)Nc4cc(C(C)(C)C)cc(C(=O)NCCN5CCOCC5)c4OC)c4ccccc34)ccn2)cc(OC)c1 [Example 59] ... 1.7
12. COc1cc(Nc2nccc(Oc3ccc(NC(=O)Nc4cc(C(C)(C)C)cc(C(=O)NCCN5CCOCC5)c4OC)c4ccccc34)n2)cc(C(=O)NCCN2CCOCC2)c1 [38(ak)] ... 1.2
13. COc1cc(Nc2cc(Oc3ccc(NC(=O)Nc4cc(C(C)(C)C)cc(C(=O)NCCN5CCNCC5)c4OC)c4ccccc34)ccn2)cc(OC)c1 [79(h)] ... 16.4
